Here the recorded % Inhibition of Apyrase is given for each entry.
System: apyrase
experimentalDetails: Screen for apyrase inhibitors (Method 1, in vitro phosphate-release absorbance assay)
Format: biochemical
assayContext: inhibitor conc at 1 mM stock, 1 hr room temperature, absorbance 630 nm; rounded average of two assay results
Report as a plain number; the unit % is understood.

compound: Cc1cccc(NC(=O)c2ccc(NS(=O)(=O)c3ccc(F)c(Cl)c3)cc2)c1 [I-905]
readout: % Inhibition of Apyrase
measurement: 61

For O=C(c1cccc(S(=O)(=O)Nc2ccc(Br)cc2)c1)N1CCc2sccc2C1 [I-262] , write its % Inhibition of Apyrase. 59

For CN(c1ccccc1)S(=O)(=O)c1cccc(NC(=O)c2cccs2)c1 [I-710] , write its % Inhibition of Apyrase. 60

----------
Test system: apyrase
experimentalDetails: Screen for apyrase inhibitors (Method 1, in vitro phosphate-release absorbance assay)
Type: biochemical
assayContext: inhibitor conc at 1 mM stock, 1 hr room temperature, absorbance 630 nm; rounded average of two assay results
// map % Inhibition of Apyrase onto a label; ranges low value = under 40%, medium value = from 40% up to 60%, high value = 60% and over

Some solved entries appear below for comparison.
compound: COc1ccc([N+](=O)[O-])cc1NS(=O)(=O)c1ccc(C(=O)Nc2ccc(F)cc2F)cc1 [I-412]
qualitativeLabel: low value
--
compound: Cc1ccccc1NS(=O)(=O)c1ccc(C(=O)Nc2cccc([N+](=O)[O-])c2C)cc1 [I-404]
qualitativeLabel: low value
--
compound: O=C(Nc1ccc(S(=O)(=O)Nc2ccc(F)c(Cl)c2)cc1)c1cccc([N+](=O)[O-])c1 [I-972]
qualitativeLabel: high value
--
compound: Cc1ccc(NC(=O)c2cccc(S(=O)(=O)N3CCc4ccccc43)c2)cc1 [I-501]
qualitativeLabel: medium value

Textbook exercise: identify the category of the compound given here, O=C(c1cc(S(=O)(=O)Nc2ccc(Cl)cc2)ccc1Cl)N1CCCc2ccccc21 [I-559] , according to its measured value. medium value

Textbook exercise: identify the category of the compound given here, COc1ccc([N+](=O)[O-])cc1NS(=O)(=O)c1ccc(C(=O)N2CCc3ccccc32)cc1 [I-892] , according to its measured value. low value

Textbook exercise: identify the category of the compound given here, O=C(Nc1ccc2c(c1)OCCCO2)c1ccc(S(=O)(=O)Nc2ccc(F)cc2)cc1 [I-415] , according to its measured value. low value

Textbook exercise: identify the category of the compound given here, O=C(Nc1ccccc1N1CCCC1)c1cccc(S(=O)(=O)N2CCc3ccccc32)c1 [I-492] , according to its measured value. medium value

Textbook exercise: identify the category of the compound given here, O=C(Nc1cccc(NS(=O)(=O)c2ccc(Cl)cc2)c1)c1ccccc1 [I-344] , according to its measured value. medium value

Textbook exercise: identify the category of the compound given here, COc1ccccc1C(=O)Nc1cccc(S(=O)(=O)Nc2ccc(Br)cc2)c1 [I-331] , according to its measured value. high value

----------
Here the recorded % Inhibition of Apyrase is given for each entry.
Test system: apyrase
experimentalDetails: Screen for apyrase inhibitors (Method 1, in vitro phosphate-release absorbance assay)
Assay type: biochemical
assayContext: inhibitor conc at 1 mM stock, 1 hr room temperature, absorbance 630 nm; rounded average of two assay results
Report as a plain number; the unit % is understood.

Here are 5 compounds together with their reported answers.
compound: O=C(Nc1ccc(OCC(F)(F)F)cc1)c1cccc(S(=O)(=O)Nc2ccc3c(c2)OCO3)c1 [I-259]
target: apyrase
measureUnit: %
% Inhibition of Apyrase: 60

compound: CC1Cc2ccccc2N1S(=O)(=O)c1cccc(C(=O)N2CCCc3ccccc32)c1 (stereo not shown) [I-465]
target: apyrase
measureUnit: %
% Inhibition of Apyrase: 59

compound: O=C(Nc1cccc(N2CCCC2=O)c1)c1ccc(NS(=O)(=O)c2ccccc2)cc1 [I-950]
target: apyrase
measureUnit: %
% Inhibition of Apyrase: 39

compound: COc1ccc(NC(=O)c2cccc(S(=O)(=O)Nc3ccc(Br)cc3)c2)cn1 [I-280]
target: apyrase
measureUnit: %
% Inhibition of Apyrase: 40

compound: CCOc1ccc(NS(=O)(=O)c2cccc(NC(=O)c3cccnc3)c2)cc1Br [I-751]
target: apyrase
measureUnit: %
% Inhibition of Apyrase: 41

For COc1ccc(NS(=O)(=O)c2cccc(NC(=O)c3ccc(Cl)s3)c2)cc1 [I-749] , write its % Inhibition of Apyrase. 41

For COc1ccc(C)cc1NC(=O)c1cccc(S(=O)(=O)N2CCc3ccccc32)c1 [I-473] , write its % Inhibition of Apyrase. 59

Origin of values: patent US12685312B2
